target: JAK2 (Homo sapiens, UniProt O60674); assay: Enzyme screening kinase assay, JAK2; type: biochemical; settings: Data 2; read-out: JAK2 IC50 Data 2
Sequence (O60674 whole entry): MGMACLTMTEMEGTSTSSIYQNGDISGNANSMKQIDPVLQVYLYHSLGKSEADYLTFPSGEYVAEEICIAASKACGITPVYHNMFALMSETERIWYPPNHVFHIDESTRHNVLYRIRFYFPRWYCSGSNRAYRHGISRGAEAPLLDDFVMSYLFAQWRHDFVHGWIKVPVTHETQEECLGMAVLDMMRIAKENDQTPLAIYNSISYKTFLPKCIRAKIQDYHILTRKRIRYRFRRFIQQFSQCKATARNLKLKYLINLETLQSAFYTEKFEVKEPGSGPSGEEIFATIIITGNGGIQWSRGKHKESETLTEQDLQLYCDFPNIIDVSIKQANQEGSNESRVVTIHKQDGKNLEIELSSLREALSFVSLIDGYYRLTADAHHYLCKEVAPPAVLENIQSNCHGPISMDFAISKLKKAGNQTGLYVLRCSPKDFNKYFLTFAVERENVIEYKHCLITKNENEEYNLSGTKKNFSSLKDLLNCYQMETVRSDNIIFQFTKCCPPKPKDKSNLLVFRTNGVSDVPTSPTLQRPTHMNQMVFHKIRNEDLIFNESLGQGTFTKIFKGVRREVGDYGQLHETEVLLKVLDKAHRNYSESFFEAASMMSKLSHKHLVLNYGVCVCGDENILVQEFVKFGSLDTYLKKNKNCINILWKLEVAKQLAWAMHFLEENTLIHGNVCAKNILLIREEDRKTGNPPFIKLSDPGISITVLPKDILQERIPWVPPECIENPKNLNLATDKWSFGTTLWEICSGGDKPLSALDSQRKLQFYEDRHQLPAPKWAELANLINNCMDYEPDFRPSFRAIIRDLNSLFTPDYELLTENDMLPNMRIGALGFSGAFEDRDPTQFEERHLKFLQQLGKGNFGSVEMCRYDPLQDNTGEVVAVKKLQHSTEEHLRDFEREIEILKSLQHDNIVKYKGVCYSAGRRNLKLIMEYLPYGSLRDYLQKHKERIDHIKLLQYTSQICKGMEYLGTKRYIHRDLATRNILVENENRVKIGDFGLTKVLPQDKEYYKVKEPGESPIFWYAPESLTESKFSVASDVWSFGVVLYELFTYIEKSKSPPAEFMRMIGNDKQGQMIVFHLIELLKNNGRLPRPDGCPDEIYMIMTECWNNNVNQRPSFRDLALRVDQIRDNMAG
parameter_measured: IC50 (nM)

{"compound": "N#CCNC(=O)c1ccc(-c2ccnc(Nc3ccc(N4C[C@H]5C[C@@H]4CO5)cc3)n2)cc1 [Compound 10]", "parameter_measured": "IC50", "numeric_result": 16.8}

[A] N#CCNC(=O)c1ccc(-c2ccnc(Nc3ccc(N4CC[C@@]5(CCO5)C4)cc3)n2)cc1 [Compound 8]
[B] N#CCNC(=O)c1ccc(-c2ccnc(Nc3ccc(N4C[C@@H]5C[C@H]4CO5)cc3)n2)cc1 [Compound 9]
Please indicate which entry, A or B , has the lower recorded IC50 value. Mark your selection by writing its label.
B

###

Target: UniProt:P23458
Assay: Enzyme screening kinase assay, JAK1
Format: biochemical
Details: Data 1; read-out: JAK1 IC50 Data 1
Procedure: Kinase assays were performed based on the method reported by Anastassiadis, T; et al Nature Biotechnology (2011); 29 (11); p 1039-p 1045 (doi:10.1038/nbt.2017).
pIC50: −log10 of the molar value.
parameter_measured: pIC50

[1] N#CCNC(=O)c1ccc(-c2ccnc(Nc3ccc(N4CC5CCC(C4)O5)cc3)n2)cc1
[2] N#CCNC(=O)c1ccc(-c2ccnc(Nc3ccc(N4CCC[C@@]5(CCO5)C4)cc3)n2)cc1
Please indicate which entry, 1 or 2 , has the lower recorded pIC50 value. Mark your selection by writing its label.
1
(1: 7.54, 2: 7.76)

[P] N#CCNC(=O)c1ccc(-c2ccnc(Nc3ccc(N4C[C@@H]5C[C@H]4CO5)cc3)n2)cc1
[Q] N#CCNC(=O)c1ccc(-c2ccnc(Nc3ccc(N4CC[C@@]5(CCO5)C4)cc3)n2)cc1
[R] N#CCNC(=O)c1ccc(-c2ccnc(Nc3ccc(N4CCC[C@]5(CCO5)C4)cc3)n2)cc1
List by increasing pIC50. Respond with an ordered listing of the labels, as requested.
Q, P, R
(Q: 7.24, P: 7.65, R: 8.00)

###

target: TYK2 (Homo sapiens); test: Enzyme screening kinase assay, TYK2; assay type: biochemical; conditions: Data 2; read-out: TYK2 IC50 Data 2
Sequence (P29597 whole entry): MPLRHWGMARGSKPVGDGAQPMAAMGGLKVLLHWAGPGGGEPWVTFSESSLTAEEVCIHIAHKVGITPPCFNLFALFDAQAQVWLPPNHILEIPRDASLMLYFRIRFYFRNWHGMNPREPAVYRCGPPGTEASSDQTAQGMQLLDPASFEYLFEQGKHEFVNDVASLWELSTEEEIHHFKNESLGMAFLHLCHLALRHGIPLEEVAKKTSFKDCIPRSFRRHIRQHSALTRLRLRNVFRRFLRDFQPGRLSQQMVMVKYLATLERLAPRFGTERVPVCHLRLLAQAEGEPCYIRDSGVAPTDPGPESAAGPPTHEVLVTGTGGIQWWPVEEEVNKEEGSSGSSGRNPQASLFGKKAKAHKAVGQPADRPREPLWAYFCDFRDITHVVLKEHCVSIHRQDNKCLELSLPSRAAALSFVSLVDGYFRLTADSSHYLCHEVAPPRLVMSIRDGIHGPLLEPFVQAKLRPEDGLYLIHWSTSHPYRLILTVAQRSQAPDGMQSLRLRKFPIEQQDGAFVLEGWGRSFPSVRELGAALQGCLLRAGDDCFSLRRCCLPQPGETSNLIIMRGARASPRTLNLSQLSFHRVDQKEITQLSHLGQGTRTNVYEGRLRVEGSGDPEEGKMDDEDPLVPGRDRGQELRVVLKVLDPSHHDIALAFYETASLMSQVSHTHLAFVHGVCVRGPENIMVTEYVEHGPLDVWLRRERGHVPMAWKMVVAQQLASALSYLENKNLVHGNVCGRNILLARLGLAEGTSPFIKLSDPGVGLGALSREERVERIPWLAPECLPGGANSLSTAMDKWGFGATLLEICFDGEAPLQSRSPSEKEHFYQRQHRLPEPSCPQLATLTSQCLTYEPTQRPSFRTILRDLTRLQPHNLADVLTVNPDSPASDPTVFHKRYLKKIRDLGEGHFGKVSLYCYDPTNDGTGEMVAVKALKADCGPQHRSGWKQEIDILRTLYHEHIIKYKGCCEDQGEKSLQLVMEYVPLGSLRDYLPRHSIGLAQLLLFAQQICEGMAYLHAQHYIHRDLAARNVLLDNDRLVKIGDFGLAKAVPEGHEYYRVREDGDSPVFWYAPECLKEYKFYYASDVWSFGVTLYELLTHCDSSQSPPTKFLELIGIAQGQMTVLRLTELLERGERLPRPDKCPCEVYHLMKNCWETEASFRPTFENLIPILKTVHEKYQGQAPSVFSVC
parameter_measured: IC50 (nM)

[1] N#CCNC(=O)c1ccc(-c2ccnc(Nc3ccc(N4CC5(CCO5)C4)cc3)n2)cc1
[2] N#CCNC(=O)c1ccc(-c2ccnc(Nc3ccc(N4C[C@@H]5C[C@H]4CO5)cc3)n2)cc1
[3] N#CCNC(=O)c1ccc(-c2ccnc(Nc3ccc(N4CCC[C@]5(CCO5)C4)cc3)n2)cc1
[4] N#CCNC(=O)c1ccc(-c2ccnc(Nc3ccc(N4C[C@H]5C[C@@H]4CO5)cc3)n2)cc1
Hey, quick one: sort these by IC50, largest value first please. Respond with an ordered listing of the labels, as requested.
1, 2, 4, 3

[A] N#CCNC(=O)c1ccc(-c2ccnc(Nc3ccc(N4CC[C@@]5(CCO5)C4)cc3)n2)cc1
[B] N#CCNC(=O)c1ccc(-c2ccnc(Nc3ccc(N4CCC5(CCO5)CC4)cc3)n2)cc1
Response body: label of entry with the larger IC50; valid values A , B . Mark your selection by writing its label.
A
(A: 9.98 nM, B: 5.65 nM)

###

molecular target: JAK1 (Homo sapiens, UniProt P23458); assay: Enzyme screening kinase assay, JAK1; assay type: biochemical; details: Data 1; read-out: JAK1 IC50 Data 1
Sequence (P23458 whole entry): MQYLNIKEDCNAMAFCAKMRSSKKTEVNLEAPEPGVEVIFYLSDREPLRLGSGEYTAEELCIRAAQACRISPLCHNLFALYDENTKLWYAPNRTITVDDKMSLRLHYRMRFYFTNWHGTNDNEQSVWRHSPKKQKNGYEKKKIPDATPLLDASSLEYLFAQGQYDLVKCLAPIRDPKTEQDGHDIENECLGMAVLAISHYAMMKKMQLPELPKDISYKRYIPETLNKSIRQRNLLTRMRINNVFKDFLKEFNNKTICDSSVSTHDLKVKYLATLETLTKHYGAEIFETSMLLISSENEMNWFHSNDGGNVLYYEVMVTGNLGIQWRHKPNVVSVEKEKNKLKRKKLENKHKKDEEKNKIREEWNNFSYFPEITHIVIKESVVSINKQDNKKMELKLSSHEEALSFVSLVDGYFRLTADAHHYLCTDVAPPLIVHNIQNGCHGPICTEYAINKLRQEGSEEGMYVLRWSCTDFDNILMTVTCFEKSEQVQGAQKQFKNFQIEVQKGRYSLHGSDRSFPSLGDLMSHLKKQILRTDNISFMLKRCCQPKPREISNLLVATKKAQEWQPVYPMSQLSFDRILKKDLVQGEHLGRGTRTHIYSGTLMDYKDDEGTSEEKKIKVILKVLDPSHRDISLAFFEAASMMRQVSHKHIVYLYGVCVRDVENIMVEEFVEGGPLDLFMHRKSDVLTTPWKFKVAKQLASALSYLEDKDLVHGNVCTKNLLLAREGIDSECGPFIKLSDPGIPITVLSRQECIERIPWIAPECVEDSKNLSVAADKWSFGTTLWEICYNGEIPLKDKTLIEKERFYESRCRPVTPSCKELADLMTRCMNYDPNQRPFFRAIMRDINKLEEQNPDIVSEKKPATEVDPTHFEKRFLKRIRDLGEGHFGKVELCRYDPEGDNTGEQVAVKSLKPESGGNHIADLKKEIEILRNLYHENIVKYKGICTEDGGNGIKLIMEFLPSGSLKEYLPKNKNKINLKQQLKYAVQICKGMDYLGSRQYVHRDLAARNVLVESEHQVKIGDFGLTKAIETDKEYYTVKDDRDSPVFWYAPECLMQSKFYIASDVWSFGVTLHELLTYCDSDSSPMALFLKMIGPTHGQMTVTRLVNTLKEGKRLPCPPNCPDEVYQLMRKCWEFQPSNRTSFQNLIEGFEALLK
pIC50: −log10 of the molar value.
parameter_measured: pIC50

{"compound": "N#CCNC(=O)c1ccc(-c2ccnc(Nc3ccc(N4CC5(COC5)C4)cc3)n2)cc1 [Compound 11]", "numeric_result": 7.48}

[P] N#CCNC(=O)c1ccc(-c2ccnc(Nc3ccc(N4CC5(CCO5)C4)cc3)n2)cc1 [Compound 1]
[Q] N#CCNC(=O)c1ccc(-c2ccnc(Nc3ccc(N4CC5CC(C4)O5)cc3)n2)cc1 [Compound 3]
Please indicate which entry, P or Q , has the lower recorded pIC50 value. Mark your selection by writing its label.
P

meta.source: patent US8809359B2
